target: Recombinant human liver GK1 (GST-GK) (Homo sapiens, UniProt P35557); construct: made in house; host or cells: E. coli; assay: Glucokinase in vitro assay (G6PDH-coupled, NADH at OD340); type: biochemical; conditions: 25° C., 5 mM D-glucose, 10% DMSO, GST-GK
Sequence (P35557 1-466 isoform P35557-2): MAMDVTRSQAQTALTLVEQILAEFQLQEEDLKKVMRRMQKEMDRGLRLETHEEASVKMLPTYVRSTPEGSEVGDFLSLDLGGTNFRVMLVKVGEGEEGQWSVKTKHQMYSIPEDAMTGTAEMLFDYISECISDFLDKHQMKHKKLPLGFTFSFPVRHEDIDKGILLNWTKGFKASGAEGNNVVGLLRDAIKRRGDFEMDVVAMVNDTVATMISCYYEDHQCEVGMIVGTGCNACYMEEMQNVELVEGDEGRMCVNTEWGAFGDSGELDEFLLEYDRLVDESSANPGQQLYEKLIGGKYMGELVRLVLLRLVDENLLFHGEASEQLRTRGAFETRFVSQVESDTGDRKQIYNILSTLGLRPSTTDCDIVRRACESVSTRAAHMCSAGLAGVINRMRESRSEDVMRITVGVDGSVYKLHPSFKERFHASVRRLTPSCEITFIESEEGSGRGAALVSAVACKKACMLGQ
READOUT_NAME: SC1.5 (concentration of activator that produced a 50% increase in the activity of GK) (µM)

Use the examples below as a reference point.
# COMPOUND, REPORTED_RESULT
records = [
    ("CC(C)n1ccc(NC(=O)[C@H](CC2CCCC2)c2ccc(S(C)(=O)=O)c(Cl)c2)n1 [Example 56]", 0.13),
    ("CS(=O)(=O)c1ccc([C@@H](CC2CCCC2)C(=O)Nc2ccn(Cc3ccccc3)n2)cc1Cl [Example 24]", 0.083),
]

P: O=C(Nc1ccn(CCO)n1)[C@H](CC1CCCC1)c1cccc(C(F)(F)F)c1 [Example 79]
Q: COCCCNC(=O)c1ccc(Cn2ccc(NC(=O)[C@H](CC3CCCC3)c3ccc(S(C)(=O)=O)c(Cl)c3)n2)cc1 [Example 47]
R: CS(=O)(=O)c1ccc([C@@H](CC2CCOCC2)C(=O)Nc2ccn(CCO)n2)cc1Cl (single isomer, unassigned) [Example 76]
S: COC(=O)c1ccc(Cn2ccc(NC(=O)[C@H](CC3CCCC3)c3ccc(S(C)(=O)=O)c(Cl)c3)n2)cc1 [Example 44]
T: CC(C)(C)OC(=O)CCn1ccc(NC(=O)[C@H](CC2CCCC2)c2ccc(S(C)(=O)=O)c(Cl)c2)n1 [Example 8]
Give the ascending ranking of the items by reported SC1.5 (concentration of activator that produced a 50% increase in the activity of GK). The reply should contain the labels ordered as requested. Q, S, T, P, R

Sourced from patent US7935699B2
